A collection of molecules and their measured inhibition
# measurementNotes: human hepatoma cell viability loss – ATP luminescence, cytotoxicity control for P. falciparum antimalarial project, primary screen (AID 2303);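 further: 0% = DMSO wells and 100% = digitonin-killed cells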
# details: HepG2 viability, 24-48 h, at 10 µM, active compounds read high
Numbers only; they are read as %.

// solved cases for inhibition follow
# molecule, inhibition [%]
rows = [
    ("CC1CCC(NCc2ccc3c(CNC4CCC(C)CC4)c(O)ccc3c2O)CC1 (stereo not given)", 4),
    ("CN(CCN)Cc1cccc(-c2ccc(-c3nc4ccc(C(F)(F)F)cc4[nH]3)s2)c1", 27),
    ("CN(C)CCOc1cc(NC(=O)Nc2ccc(-c3ccncc3)c(Cl)c2)ccc1I", 43),
    ("CCOCCCNc1sc(S(=O)(=O)c2ccccc2)nc1S(=O)(=O)c1ccc(C)cc1", -8),
    ("COc1ccc(CNCc2ccc(-c3cccc(-c4nc5ccc(C(F)(F)F)cc5[nH]4)c3)cc2)cc1", 59),
]

IN: Given the molecule CC(C)c1ncc(-c2ccncc2)c(C2CCC(CNC(=O)c3ccncc3)CC2)n1 (stereo not given) , what is its reported inhibition?
OUT: -6

IN: Given the molecule Cc1ccc(F)cc1-c1cc(N2CCCN(C(=O)c3ccc(Br)o3)CC2)ncn1 , what is its reported inhibition?
OUT: 0

IN: Given the molecule COc1ccc(NC(=O)Nc2ccc(C)c(-c3ccc(C(=O)NCCN4CCCC4)cc3)c2)cc1 , what is its reported inhibition?
OUT: 18

IN: Given the molecule CCN(CC)Cc1cc(Nc2c3ccc(Cl)cc3nc3cccc(OC)c23)ccc1O , what is its reported inhibition?
OUT: 8

IN: Given the molecule COC(=O)Cc1ccc(N)c2ccccc12 , what is its reported inhibition?
OUT: 2
